B1: r16_88_TrROS_Hall (parent)
chain: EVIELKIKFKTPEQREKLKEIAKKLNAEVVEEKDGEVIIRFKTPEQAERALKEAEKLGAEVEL

# Variants of: B1
# ASSAY DETAILS: folding stability dG (cDNA display proteolysis); higher = more stable
# ASSAY SETUP: PBS, room temperature
Listed here are variants together with their documented folding stability dG.
Field: numeric (kcal/mol). Do not append units.

// lookup folding stability dG for F41S 4.03

// lookup folding stability dG for E48D 4.47

// lookup folding stability dG for L63G 4.38

// lookup folding stability dG for K8F 4.53

// lookup folding stability dG for K33D 4.26
